target: Kappa-type opioid receptor (Homo sapiens, UniProt P41145); assay: Agonist activity at kappa opioid receptor (unknown origin) expressed in HEK293-A cells assessed as reduction in forskolin-induced cAMP accumulation incubated for 30 mins by competition PKA binding assay
pEC50: −log10 of the molar value. Non-standard residues stand in square brackets, D forms with d. Residues, ends and D or L forms follow the SMILES beside them. NMeY = CN[C@@H](Cc1ccc(O)cc1)C(=O)O
quantity: pEC50

molecule="C[C@@H](NC(=O)[C@@H](N)Cc1ccc(O)cc1)C(=O)NCC(=O)N[C@@H](Cc1ccccc1)C(=O)N[C@@H](CCC(N)=O)C(=O)N1CCC[C@H]1C(=O)N[C@@H](CCC(N)=O)C(=O)N[C@@H](CCCNC(=N)N)C(=O)N[C@@H](Cc1ccccc1)C(N)=O (H-Y[dA]GFQPQRF-NH2)" endpoint_value=6.25
molecule="CC(C)C[C@H](NC(=O)[C@H](Cc1ccccc1)NC(=O)CNC(=O)[C@@H](C)NC(=O)[C@@H](N)Cc1ccc(O)cc1)C(=O)N1CCC[C@H]1C(=O)N[C@@H](CCC(N)=O)C(=O)N[C@@H](CCCNC(=N)N)C(=O)N[C@@H](Cc1ccccc1)C(N)=O (H-Y[dA]GFLPQRF-NH2)" endpoint_value=6.92
molecule="CN[C@@H](Cc1ccc(O)cc1)C(=O)N[C@H](C)C(=O)NCC(=O)N[C@@H](Cc1ccccc1)C(=O)N[C@@H](CCC(N)=O)C(=O)N1CCC[C@H]1C(=O)N[C@@H](CCC(N)=O)C(=O)N[C@@H](CCCNC(=N)N)C(=O)N[C@@H](Cc1ccccc1)C(N)=O (H-[NMeY][dA]GFQPQRF-NH2)" endpoint_value=5.59
molecule="CSCC[C@H](NC(=O)[C@H](Cc1ccccc1)NC(=O)CNC(=O)[C@@H](C)NC(=O)[C@@H](N)Cc1ccc(O)cc1)C(=O)N1CCC[C@H]1C(=O)N[C@@H](CCC(N)=O)C(=O)N[C@@H](CCCNC(=N)N)C(=O)N[C@@H](Cc1ccccc1)C(N)=O (H-Y[dA]GFMPQRF-NH2)" endpoint_value=6.62

###

Quick reference for Emax among some compounds
biological target: Delta-type opioid receptor (Homo sapiens); experiment: Agonist activity at delta opioid receptor (unknown origin) expressed in HEK293-A cells assessed as reduction in forskolin-induced cAMP accumulation incubated for 30 mins by competition PKA binding assay relative to Tyr-D-Ala-Gly-Phe-Gln-Pro-Gln-Arg-Phe-NH2; assay type: functional, cell-based; details: filed as agonist
Non-standard residues stand in square brackets, D forms with d. Residues, ends and D or L forms follow the SMILES beside them.
quantity: Emax (%)

compound="C[C@@H](NC(=O)[C@@H](N)Cc1ccc(O)cc1)C(=O)NCC(=O)N[C@@H](Cc1ccccc1)C(=O)NCC(=O)N1CCC[C@H]1C(=O)N[C@@H](CCC(N)=O)C(=O)N[C@@H](CCCNC(=N)N)C(=O)N[C@@H](Cc1ccccc1)C(N)=O (H-Y[dA]GFGPQRF-NH2)" assay_system="Delta-type opioid receptor (Homo sapiens)" endpoint_value=75.7
compound="CC(C)C[C@H](NC(=O)[C@H](Cc1ccccc1)NC(=O)CNC(=O)[C@@H](C)NC(=O)[C@@H](N)Cc1ccc(O)cc1)C(=O)N1CCC[C@H]1C(=O)N[C@@H](CCC(N)=O)C(=O)N[C@@H](CCCNC(=N)N)C(=O)N[C@@H](Cc1ccccc1)C(N)=O (H-Y[dA]GFLPQRF-NH2)" assay_system="Delta-type opioid receptor (Homo sapiens)" endpoint_value=79.1
compound=N=C(N)NCCC[C@H](NC(=O)[C@H](CCC(N)=O)NC(=O)[C@@H]1CCCN1C(=O)[C@H](CCC(N)=O)NC(=O)[C@H](Cc1ccccc1)NC(=O)CNC(=O)[C@@H](CO)NC(=O)[C@@H](N)Cc1ccc(O)cc1)C(=O)N[C@@H](Cc1ccccc1)C(N)=O assay_system="Delta-type opioid receptor (Homo sapiens)" endpoint_value=84.9
compound="CSCC[C@@H](NC(=O)[C@H](Cc1ccccc1)NC(=O)CNC(=O)[C@@H](C)NC(=O)[C@@H](N)Cc1ccc(O)cc1)C(=O)N1CCC[C@H]1C(=O)N[C@@H](CCC(N)=O)C(=O)N[C@@H](CCCNC(=N)N)C(=O)N[C@@H](Cc1ccccc1)C(N)=O (H-Y[dA]GF[dM]PQRF-NH2)" assay_system="Delta-type opioid receptor (Homo sapiens)" endpoint_value=78.4

###

Quick reference for EC50 among some molecules
target: Delta-type opioid receptor (Homo sapiens, UniProt P41143); experiment: Agonist activity at delta opioid receptor (unknown origin) expressed in HEK293-A cells assessed as reduction in forskolin-induced cAMP accumulation incubated for 30 mins by competition PKA binding assay
Non-standard residues stand in square brackets, D forms with d. Residues, ends and D or L forms follow the SMILES beside them.
quantity: EC50 (nM)

molecule="CC(C)C[C@@H](NC(=O)[C@H](Cc1ccccc1)NC(=O)CNC(=O)[C@@H](C)NC(=O)[C@@H](N)Cc1ccc(O)cc1)C(=O)N1CCC[C@H]1C(=O)N[C@@H](CCC(N)=O)C(=O)N[C@@H](CCCNC(=N)N)C(=O)N[C@@H](Cc1ccccc1)C(N)=O (H-Y[dA]GF[dL]PQRF-NH2)" endpoint_value=56.9
molecule="C[C@@H](NC(=O)[C@@H](N)Cc1ccc(O)cc1)C(=O)NCC(=O)N[C@@H](Cc1ccccc1)C(=O)NCC(=O)N1CCC[C@H]1C(=O)N[C@@H](CCC(N)=O)C(=O)N[C@@H](CCCNC(=N)N)C(=O)N[C@@H](Cc1ccccc1)C(N)=O (H-Y[dA]GFGPQRF-NH2)" endpoint_value=898
molecule="C[C@@H](NC(=O)[C@@H](N)Cc1ccc(O)cc1)C(=O)NCC(=O)N[C@@H](Cc1ccccc1)C(=O)N[C@@H](CCC(N)=O)C(=O)N1CCC[C@H]1C(=O)N[C@@H](CCC(N)=O)C(=O)N[C@@H](CCCNC(=N)N)C(=O)N[C@@H](Cc1ccccc1)C(N)=O (H-Y[dA]GFQPQRF-NH2)" endpoint_value=587
